Biological target: T1, mOrai1-hOrai1 ECL2 (KPPAE) protein (human/mouse chimera, UniProt Q8BWG9 1-304 (mouse entry))
T1 construct: also called Ch
T1 sequence (Q8BWG9 other isoform, or with tags, fused parts or gaps): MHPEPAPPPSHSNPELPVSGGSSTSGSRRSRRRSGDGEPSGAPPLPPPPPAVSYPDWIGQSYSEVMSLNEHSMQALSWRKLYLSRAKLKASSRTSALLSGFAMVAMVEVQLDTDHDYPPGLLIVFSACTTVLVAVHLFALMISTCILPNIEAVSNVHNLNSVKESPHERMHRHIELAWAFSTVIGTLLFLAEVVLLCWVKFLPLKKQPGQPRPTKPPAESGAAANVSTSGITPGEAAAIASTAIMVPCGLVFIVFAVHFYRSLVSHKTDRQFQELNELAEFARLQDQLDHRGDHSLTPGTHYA
Assay: FACS, 293EBNA
Parameters: concentration or dose not given beside the values
measure: POC (percent of control, FACS Geo Mean relative to Ch. 1)

binder	result
mAb 2B7.1 (antibody, human IgG2, V domains shown, fully human, Campaign 1) VH: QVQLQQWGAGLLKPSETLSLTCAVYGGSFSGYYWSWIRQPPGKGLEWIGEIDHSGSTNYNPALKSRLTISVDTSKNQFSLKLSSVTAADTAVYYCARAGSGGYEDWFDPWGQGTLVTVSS VL: QSVLTQPPSVSGAPGQRVTISCTGSSSNIGTGYNVHWYQQFPRTDPKLLIYVYNIRPSGVPDRFSGSRSGTSASLAITGLQTEDEADYYCQSYDSSLSGVVFGGGTKLTVLG	< 1%
mAb 2B4.1 (antibody, human IgG2, lambda, V domains shown) VH: QVQLVQSGAEVKKPGASVKVSCKASGYTFTDYYMHWVRQAPGQGLEWMGWINPNSGGTNYVQKFQDRVTMTRDTSITTAYMELTRLRSDDTAVYYCAREEGDYGMDVWGQGTTVTVSS VL: QSVLTQPPSVSGAPGQRVTISCTGSNSNIGTGYDVHWYQKLPGTAPRLLIYSHFNRPSGVPDRFSGSTSGTSASLAITGLQAEDEADYYCQSYDSSLSGSVFGGGTKLTVLG	< 1%
mAb 2D2.1 (antibody, human IgG2, lambda, V domains shown, fully human IgG2 lambda, Campaign 1; also called mAb 2D.1) VH: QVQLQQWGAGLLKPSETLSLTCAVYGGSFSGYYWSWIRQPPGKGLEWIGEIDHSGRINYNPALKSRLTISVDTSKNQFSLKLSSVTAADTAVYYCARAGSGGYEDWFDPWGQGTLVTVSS VL: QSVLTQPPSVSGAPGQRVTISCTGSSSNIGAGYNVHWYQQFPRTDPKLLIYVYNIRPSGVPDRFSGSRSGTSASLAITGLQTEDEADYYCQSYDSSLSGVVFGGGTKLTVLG	< 1%

The reported measurements were obtained from patent US20120231006A1.
